Conditions: pH 2.7
Marks after values point to notes of the source that are not given here.

compound: CCCCOC(=S)Nc1nc(CO/N=C(/c2ccccc2)c2noc(=O)n2C)cs1 [Example 410]
LogP: 4.56 [a]
//
compound: Cc1cccc(/C(=N/OCc2cccc(NC(=O)OC(C)(C)C)n2)c2noc(=O)n2C)c1 [Example 142]
LogP: 4.34 [a]
//
compound: C#CCCCOC(=O)Nc1cccc(CO/N=C(/c2ccccc2)c2noc(=O)n2C)n1 [compound 436]
LogP: 3.51 [a]
//
compound: COc1ccc(OC)c(CC(=O)Nc2cccc(CO/N=C(/c3ccccc3)c3noc(=O)n3C)n2)c1 [Example 190]
LogP: 3.6 [a]
//
compound: Cc1cc(C)cc(COC(=O)Nc2cccc(CON=C(c3ccccc3)c3noc(=O)n3C)n2)c1 [compound 498]
LogP: 4.68 [a]
//
compound: CC(COC(=O)Nc1cccc(CO/N=C(/c2ccccc2)c2noc(=O)n2C)n1)CC(C)(C)C (stereo not drawn) [compound 451]
LogP: 5.39 [a]
//
compound: Cn1c(/C(=N\OCc2cccc(NC(=O)COCc3ccccc3)n2)c2ccccc2)noc1=O [Example 278]
LogP: 3.87 [a]
//
compound: CC=CCCCOC(=O)Nc1cccc(CON=C(c2ccccc2)c2noc(=O)n2C)n1 [compound 505]
LogP: 4.39 [a]
//
compound: Cn1c(/C(=N\OCc2cccc(NC(=O)OCCc3ccc(Br)cc3)n2)c2ccccc2)noc1=O [Example 238]
LogP: 4.63 [a]
//
compound: Cc1ccc(/C(=N/OCc2csc(N)n2)c2noc(=O)[nH]2)cc1 [Example 308]
LogP: 1.84 [a]
//
compound: CCCCCOC(=O)Nc1cccc(CO/N=C(/c2ccccc2)c2noc(=O)n2C)n1 [Example 2]
LogP: 4.44 [a]
//
compound: Cc1ccc(C(=NOCc2csc(NC(=O)Cc3ccccc3)n2)c2noc(=O)n2C)cc1 [Example 252]
LogP: 3.65 [a]
//
compound: CCCCCCC(=O)Nc1cccc(CO/N=C(/c2ccccc2)c2noc(=O)n2C)n1 [Example 8]
LogP: 4.3 [a]
//
compound: Cc1cccc(/C(=N/OCc2cccc(NC(=O)OCc3ccccc3)n2)c2noc(=O)n2C)c1 [Example 117]
LogP: 4.31 [a]
//
compound: Cn1c(/C(=N\OCc2cccc(NC(=O)C3CC3)n2)c2ccccc2)noc1=O [Example 35]
LogP: 2.92 [a]
//
compound: CCc1ccc(OC(=O)Nc2cccc(CO/N=C(/c3ccccc3)c3noc(=O)n3C)n2)cc1 [compound 478]
LogP: 4.39 [a]
//
compound: Cc1ccc(C(=NOCc2csc(N)n2)C(N)=NO)cc1 (mixture of isomers) [Example V-15]
LogP: 0.89 [a]
//
compound: Cn1c(/C(=N\OCc2cccc(NC(=O)c3ccc(Oc4ccccc4)cc3)n2)c2ccccc2)noc1=O [Example 357]
LogP: 4.58 [a]
//
compound: Cn1c(/C(=N\OCc2cccc(NC(=O)OCCc3ccccc3Br)n2)c2ccccc2)noc1=O [Example 298]
LogP: 4.66 [a]
//
compound: CCCc1ccc(OC(=O)Nc2cccc(CO/N=C(/c3ccccc3)c3noc(=O)n3C)n2)cc1 [compound 467]
LogP: 4.74 [a]
//
compound: Cn1c(/C(=N\OCc2cccc(NC(=O)OCCc3ccccc3)n2)c2cccc(F)c2)noc1=O [Example 297]
LogP: 4.26 [a]
//
compound: Cn1c(C(=NOCc2cccc(NC(=O)OC(C)(C)C)n2)c2ccc(F)cc2)noc1=O [Example 246]
LogP: 4.06 [a]
//
compound: CC(Oc1ccccc1Cl)C(=O)Nc1nc(CO/N=C(/c2ccccc2)c2noc(=O)n2C)cs1 (racemic) [Example 366]
LogP: 4.07 [a]
//
compound: Cc1ccc(C2(C(=O)Nc3cccc(CO/N=C(/c4ccccc4)c4noc(=O)n4C)n3)CC2)cc1 [Example 397]
LogP: 4.76 [a]

Hello, the source for this data is patent US9090600B2, in case you need it.
